Assay: Drug level in C57BL/6J DIO mouse brain at 10 mg/kg, po after 22 days
Assay type: ADME, organism-based
Parameters: dose 10 mg/kg, route oral
Conditions: read-out: Drug uptake
READOUT TYPE: concentration at 528 h (ng/g)
Give bare numbers, in ng/g.

Write down concentration at 528 h measured for item O=C(NC1CCN(Cc2ccc3c(c2)OCO3)CC1)c1cc(=O)c2ccc(F)cc2o1
4670

* * *

Experiment: Half life in C57BL/6J DIO mouse brain at 10 mg/kg, po
Format: ADME, organism-based
Parameters: dose 10 mg/kg, route oral
READOUT TYPE: half-life (h)
Answers are plain numbers, in h.

SMILES TEXT: O=C(NC1CCN(Cc2ccc3c(c2)OCO3)CC1)c1cc(=O)c2ccc(F)cc2o1
DATA VALUE: 2.4

Attention now turns to another entry.
Quick one: give measured half-life for COc1ccc2c(=O)cc(C(=O)NC3CCN(Cc4ccc5c(c4)OCO5)CC3)oc2c1
4.9
